Assay: Inhibition of MDC-stimulated chemotaxis in transfected murine cell line expressing human chemokine receptor 4
Readout Label: EC50 (nM)

(a) C[C@@H](NC(=O)C[C@H]1S[C@H](c2ccc(Cl)cc2Cl)N(CC(=O)NCCCN2CCCCC2)C1=O)c1cccc2ccccc12
(b) Cc1c(Cl)cccc1CNC(=O)C[C@H]1S[C@H](c2ccc(Cl)cc2Cl)N(CC(=O)NCCCN2CCCCC2)C1=O
QUERY: Please state the entry with greater EC50 among a and b . Record your answer as the label of the chosen record.
RESULT: b
(b: 2000 nM, a: 600 nM)
